- experimental conditions: [M+Na]+; instrument: DT; single field, calibrated with ESI Low Concentration Tuning Mix (Agilent)
reported endpoint: collision cross section (N2) (Å²)

compound	result value
CC(=O)NCC(=O)O	133
NCC[Se][Se]CCN	138.6
N[C@@H](CCC(=O)N[C@@H](CS)C(=O)NCC(=O)O)C(=O)O	167
OC1OC[C@@H](O)[C@H](O)[C@@H]1O (some centres not stated)	136.8
CCCCCCCCCCCCCCCCCCCCCCC(=O)[O-] [TRICOSANOATE]	204.8
CC(=O)NCCCNCCCCNCCCN	162
OC1OC[C@H](O)[C@H](O)[C@H]1O (some centres not stated)	134.6
O=C(O)Cc1c[nH]c2ccc(O)cc12 [5-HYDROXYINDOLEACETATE]	148.4
Nc1ncnc2c1ncn2[C@H]1C[C@H](O)[C@@H](COP(=O)(O)OP(=O)(O)OP(=O)(O)O)O1 [DEOXYADENOSINE TRIPHOSPHATE]	202
CC(=O)NC(Cc1ccccc1)C(=O)O (configuration not stated)	149.4
OC1OC[C@@H](O)[C@@H](O)[C@H]1O (some centres not stated)	135.2
Nc1nc(=O)c2ncn([C@H]3C[C@H](O)[C@@H](CO)O3)c2[nH]1	171.7
